- Target of assay: Neu5Ac(a2-6)Gal(b1-4)GlcNAc(b1-3)Gal(b1-4)GlcNAc(b1-3)[Neu5Ac(a2-6)Gal(b1-4)GlcNAc(b1-3)Gal(b1-4)GlcNAc(b1-6)]GalNAc
- Measurement description: glycan array binding signal (z-score within array); higher = stronger binding
- Run conditions: glycan notation: IUPAC condensed, linker removed
Shown is part of a subset that was picked to be rich in the strongest signals.
Observable: glycan array binding signal (z-score)
Reply with the value as a number alone.

Summary for this binder, ACA (Amaranthus caudatus) (protein) MAGLPVIMCLKSNNNQKYLRYQSDNIQQYGLLQFSADKILDPLAQFEVEPSKTYDGLVHIKSRYTNKYLVRWSPNHYWITASANEPDENKSNWACTLFKPLYVEEGNMKKVRLLHVQLGHYTQNYTVGGSFVSYLFAESSQIDTGSKDVFHVIDWKSIFQFPKRYVTFKGNNGKYLGVITINQLPCLQFGYDNLNDPKVAHEMFVTSNGTICIKSTYMNKFWRLSTDDWILVDGNDPRETNEAAALFRSDVHDFNVISLLNMQKTWFIKRFTSGKPGFINCMNAATQNVDETAILEIIELGSNN : glycan array binding signal (z-score) is 4.69

Summary for this binder, Gal 1 (Mus musculus), P16045 (protein) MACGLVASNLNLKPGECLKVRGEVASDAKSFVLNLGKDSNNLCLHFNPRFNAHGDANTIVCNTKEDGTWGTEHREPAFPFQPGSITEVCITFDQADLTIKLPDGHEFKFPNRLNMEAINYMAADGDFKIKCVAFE : glycan array binding signal (z-score) is 1.13

Summary for this binder, AT5G24760(45) (Arabidopsis thaliana), Q8LEB2 (protein) MSASSSSFEQPQVITCNAAVAWRAGEPLVMEEVEVSPPQPLEIRIKVVCTSLCRSDLSAWESQSLLPRIFGHEAAGIVESIGEGVTEFEKGDHVLAVFTGECGSCRHCISGKSNMCQVLGMERKGLMHSDQKTRFSIKGKPVYHYCAVSSFSEYTVVHSGCAVKVDPLAPLHKICLLSCGVAAGLGAAWNVADVQKGSSVVIFGLGTVGLSVAQGAKLRGAAQILGVDINPAKAEQAKTFGVTDFINSNDLSEPIPQVIKRMTGGGADFSFECVGDTGIATTALQSCSDGWGMTVTLGVPKAKPEVSAHYGLFLSGKSLKGTLFGGWKPKSDLPSLIDKYMNKEIMIDEFITHNLSFDEINKAFVLMREGKCLRCVLHMPK : glycan array binding signal (z-score) is -0.602

Summary for this binder, LTL (Lotus tetragonolobus), P19664 (protein) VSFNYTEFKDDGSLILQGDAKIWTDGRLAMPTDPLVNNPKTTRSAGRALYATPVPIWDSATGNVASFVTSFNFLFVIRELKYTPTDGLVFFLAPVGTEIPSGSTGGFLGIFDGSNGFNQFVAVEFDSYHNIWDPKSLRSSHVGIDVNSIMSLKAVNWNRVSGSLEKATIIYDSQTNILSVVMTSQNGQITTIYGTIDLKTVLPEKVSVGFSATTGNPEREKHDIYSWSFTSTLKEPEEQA : glycan array binding signal (z-score) is 3.76

Summary for this binder, his-Lectin-24A (Drosophila melanogaster) (protein) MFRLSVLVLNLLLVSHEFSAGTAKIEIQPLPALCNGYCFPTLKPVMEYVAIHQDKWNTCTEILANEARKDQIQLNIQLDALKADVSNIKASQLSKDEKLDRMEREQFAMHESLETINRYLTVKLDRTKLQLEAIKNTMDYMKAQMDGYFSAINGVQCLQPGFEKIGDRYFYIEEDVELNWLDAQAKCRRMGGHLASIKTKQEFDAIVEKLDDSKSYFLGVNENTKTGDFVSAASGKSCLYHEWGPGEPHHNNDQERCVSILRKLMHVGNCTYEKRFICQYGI : glycan array binding signal (z-score) is 0.118
